- subject.of.test: p300 (Homo sapiens)
- Sequence (Q09472 2-2414): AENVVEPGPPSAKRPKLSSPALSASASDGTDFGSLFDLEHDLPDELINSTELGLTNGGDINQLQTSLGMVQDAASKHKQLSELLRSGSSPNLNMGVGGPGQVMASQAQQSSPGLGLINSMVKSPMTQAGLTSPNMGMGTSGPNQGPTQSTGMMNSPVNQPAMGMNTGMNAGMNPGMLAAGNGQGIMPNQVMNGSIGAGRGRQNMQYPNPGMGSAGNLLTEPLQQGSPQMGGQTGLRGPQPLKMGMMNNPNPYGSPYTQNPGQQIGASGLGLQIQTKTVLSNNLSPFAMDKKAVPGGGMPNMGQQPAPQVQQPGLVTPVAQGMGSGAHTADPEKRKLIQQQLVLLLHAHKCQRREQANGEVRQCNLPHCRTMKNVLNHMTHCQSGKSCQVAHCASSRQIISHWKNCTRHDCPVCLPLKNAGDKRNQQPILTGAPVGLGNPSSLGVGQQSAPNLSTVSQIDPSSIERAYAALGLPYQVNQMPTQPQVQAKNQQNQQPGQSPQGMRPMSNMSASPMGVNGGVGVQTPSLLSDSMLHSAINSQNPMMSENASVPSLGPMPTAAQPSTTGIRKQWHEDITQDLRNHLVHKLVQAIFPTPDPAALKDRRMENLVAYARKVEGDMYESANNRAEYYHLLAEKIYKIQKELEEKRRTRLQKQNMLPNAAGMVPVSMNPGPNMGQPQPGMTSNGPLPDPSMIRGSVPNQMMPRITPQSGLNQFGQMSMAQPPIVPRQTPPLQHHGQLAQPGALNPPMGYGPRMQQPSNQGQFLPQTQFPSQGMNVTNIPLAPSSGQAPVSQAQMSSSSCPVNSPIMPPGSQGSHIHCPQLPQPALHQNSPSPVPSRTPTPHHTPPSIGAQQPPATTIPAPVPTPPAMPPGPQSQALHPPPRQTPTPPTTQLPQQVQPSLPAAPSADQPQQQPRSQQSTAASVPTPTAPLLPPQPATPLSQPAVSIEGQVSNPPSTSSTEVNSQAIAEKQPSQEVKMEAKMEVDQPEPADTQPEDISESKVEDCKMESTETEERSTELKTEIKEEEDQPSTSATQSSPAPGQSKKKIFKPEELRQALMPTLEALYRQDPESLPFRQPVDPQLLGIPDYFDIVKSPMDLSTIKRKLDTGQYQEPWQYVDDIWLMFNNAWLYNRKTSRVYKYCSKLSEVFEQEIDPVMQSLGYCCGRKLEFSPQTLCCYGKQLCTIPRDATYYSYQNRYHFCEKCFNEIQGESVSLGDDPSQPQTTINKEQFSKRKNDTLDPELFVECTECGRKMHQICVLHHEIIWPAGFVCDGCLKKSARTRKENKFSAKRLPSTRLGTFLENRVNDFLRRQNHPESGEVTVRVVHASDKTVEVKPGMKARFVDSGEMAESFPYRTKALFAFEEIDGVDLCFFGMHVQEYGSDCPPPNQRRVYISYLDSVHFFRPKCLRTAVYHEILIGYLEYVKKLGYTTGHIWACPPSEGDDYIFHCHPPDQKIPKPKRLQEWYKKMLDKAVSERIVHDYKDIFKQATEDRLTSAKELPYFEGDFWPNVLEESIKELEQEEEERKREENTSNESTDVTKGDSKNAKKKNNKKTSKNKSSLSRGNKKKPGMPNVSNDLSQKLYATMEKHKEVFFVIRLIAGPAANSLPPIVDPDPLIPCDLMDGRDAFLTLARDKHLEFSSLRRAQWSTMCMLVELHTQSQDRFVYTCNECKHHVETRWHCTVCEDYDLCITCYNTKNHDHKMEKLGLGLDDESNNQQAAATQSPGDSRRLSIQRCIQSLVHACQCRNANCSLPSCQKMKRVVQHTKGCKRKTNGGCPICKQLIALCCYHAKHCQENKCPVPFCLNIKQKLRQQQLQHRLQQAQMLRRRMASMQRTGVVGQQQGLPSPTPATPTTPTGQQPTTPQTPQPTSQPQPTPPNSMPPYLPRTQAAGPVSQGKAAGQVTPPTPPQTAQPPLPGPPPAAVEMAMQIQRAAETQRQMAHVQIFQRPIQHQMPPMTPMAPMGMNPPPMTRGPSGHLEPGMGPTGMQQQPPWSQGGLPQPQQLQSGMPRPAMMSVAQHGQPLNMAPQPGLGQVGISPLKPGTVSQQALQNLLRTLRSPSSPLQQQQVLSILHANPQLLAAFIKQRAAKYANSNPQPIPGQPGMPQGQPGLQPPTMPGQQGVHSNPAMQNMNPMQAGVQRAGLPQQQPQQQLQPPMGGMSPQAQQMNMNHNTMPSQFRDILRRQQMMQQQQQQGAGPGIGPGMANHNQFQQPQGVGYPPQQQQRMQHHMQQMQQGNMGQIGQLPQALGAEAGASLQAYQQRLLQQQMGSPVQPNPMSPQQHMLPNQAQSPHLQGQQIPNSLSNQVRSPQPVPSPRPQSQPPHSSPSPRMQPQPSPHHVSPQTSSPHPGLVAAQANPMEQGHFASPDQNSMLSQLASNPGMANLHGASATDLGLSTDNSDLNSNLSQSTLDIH
- assay.method.text: cell-free H3K27 acetylation, immunoblot
readout.kind: EC50 (µM)

structure_as_smiles=CCOc1cccc(OCCN(C)C)c1C(=O)Nc1ccc(Cl)c(C(F)(F)F)c1 subject_of_test="p300 (Homo sapiens)" readout_kind=EC50 val=4.32

The measurements presented in this section are drawn from paper doi:10.1101/2025.03.13.642871v2.
